Ref: paper PMC3615554

This section presents molecules with their documented IC50 values.
Biological target: SRC kinase (Homo sapiens)
Sequence (P12931 whole entry): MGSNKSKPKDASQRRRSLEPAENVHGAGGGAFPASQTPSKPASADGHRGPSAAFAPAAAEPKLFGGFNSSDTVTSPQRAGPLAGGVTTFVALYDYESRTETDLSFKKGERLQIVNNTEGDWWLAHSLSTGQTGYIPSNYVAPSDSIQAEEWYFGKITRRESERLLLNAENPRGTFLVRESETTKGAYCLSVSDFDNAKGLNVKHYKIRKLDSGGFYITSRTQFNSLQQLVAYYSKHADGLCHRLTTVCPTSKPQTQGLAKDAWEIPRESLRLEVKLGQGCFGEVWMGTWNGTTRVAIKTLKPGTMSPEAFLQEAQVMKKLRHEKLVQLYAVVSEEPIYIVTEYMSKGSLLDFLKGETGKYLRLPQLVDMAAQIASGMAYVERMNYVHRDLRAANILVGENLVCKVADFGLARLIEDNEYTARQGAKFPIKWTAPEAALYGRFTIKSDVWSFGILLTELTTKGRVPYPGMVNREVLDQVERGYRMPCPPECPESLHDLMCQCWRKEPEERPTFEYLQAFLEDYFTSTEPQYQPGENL
Experiment: Luminescence ADP production kinase assay, SRC

Sample records with IC50:
COc1cc2ncnc(Nc3cccc(Cl)c3)c2cc1OC | 2.6 µM
CC[C@@]1(O)C(=O)OCc2c1cc1n(c2=O)Cc2cc3ccccc3nc2-1 | > 10 µM
CS(=O)(=O)CCNCc1nc(-c2ccc3ncnc(Nc4ccc(OCc5cccc(F)c5)c(Cl)c4)c3c2)cs1 | > 10 µM
COc1cc2ncnc(Nc3cccc(Br)c3)c2cc1OC | > 10 µM

Let's switch to this molecule now.
Per the record, CC1(C)O[C@@H]2C[C@H]3[C@@H]4C[C@H](F)C5=CC(=O)CC[C@]5(C)[C@H]4[C@@H](O)C[C@]3(C)[C@]2(C(=O)CO)O1 [Flurandrenolide, flurandrenolide] has IC50 of > 10 µM
